experiment-description: Growth inhibition of mouse J774.1 cells at 300 nM after 48 hrs by MTT assay relative to control
Type: cell-based
condition-label: read-out: GI
measurement-name: inhibition at 48 h, 0.3 µM (%)
The figure you give is taken to be in %; do not add the unit.

Query: Need inhibition at 48 h, 0.3 µM, item COC(=O)c1[nH]c2ccc(OC)cc2c1Cc1cc(OC)c(OC)c(OC)c1
Reply: 20

Query: Need inhibition at 48 h, 0.3 µM, item COc1cc(Sc2c[nH]c3ccc(Br)cc23)cc(OC)c1OC
Reply: 20

Query: Need inhibition at 48 h, 0.3 µM, item COC(=O)c1[nH]c2ccc(OC)cc2c1C(=O)c1cc(OC)c(OC)c(OC)c1
Reply: 20

---

Species on record: Bos taurus
experiment-description: Inhibition of [3H]colchicine binding to bovine tubulin at 5 uM after 10 mins by DEAE-cellulose filter method
measurement-name: inhibition (%)
The figure you give is taken to be in %; do not add the unit.

Query: Need inhibition, item CCOC(=O)c1[nH]c2ccc(Cl)cc2c1C(=O)c1cc(OC)c(OC)c(OC)c1
Reply: 49

Query: Need inhibition, item COc1cc(C(=O)c2c[nH]c3ccc(Cl)cc23)cc(OC)c1OC
Reply: 44

Query: Need inhibition, item COC(=O)c1[nH]c2ccccc2c1C(=O)c1cc(OC)c(OC)c(OC)c1
Reply: 49

Query: Need inhibition, item COc1cc(Sc2c[nH]c3ccc(Br)cc23)cc(OC)c1OC
Reply: 65

Query: Need inhibition, item CCOC(=O)c1[nH]c2ccc(Cl)cc2c1Cc1cc(OC)c(OC)c(OC)c1
Reply: 39

Query: Need inhibition, item CCOC(=O)c1[nH]c2ccc(OC)cc2c1Cc1cc(OC)c(OC)c(OC)c1
Reply: 42

Query: Need inhibition, item COc1cc(Sc2c[nH]c3ccc(Cl)cc23)cc(OC)c1OC
Reply: 51

Query: Need inhibition, item CCOC(=O)c1[nH]c2ccc(OC)cc2c1C(=O)c1cc(OC)c(OC)c(OC)c1
Reply: 49

Query: Need inhibition, item COc1cc(Sc2c[nH]c3ccccc23)cc(OC)c1OC
Reply: 68

Query: Need inhibition, item COC(=O)c1[nH]c2ccccc2c1Cc1cc(OC)c(OC)c(OC)c1
Reply: 33

---

Test system: HEK293
experiment-description: Cytotoxicity against HEK293 cells after 48 hrs by MTT assay
Assay type: cell-based, Homo sapiens
condition-label: Homo sapiens, HEK293, 48 h
measurement-name: IC50

Query: # value lookup — system HEK293, readout IC50, item COC(=O)c1[nH]c2ccc(OC)cc2c1Cc1cc(OC)c(OC)c(OC)c1
Reply: 181 nM

Query: # value lookup — system HEK293, readout IC50, item COC(=O)c1[nH]c2ccc(OC)cc2c1C(=O)c1cc(OC)c(OC)c(OC)c1
Reply: 140 nM

---

Organism: Bos taurus
experiment-description: Inhibition of [3H]colchicine binding to bovine tubulin at 5 uM after 10 mins by DEAE-cellulose filter method
measurement-name: inhibition (%)
The figure you give is taken to be in %; do not add the unit.

Query: Need inhibition, item COC(=O)c1[nH]c2ccc(Cl)cc2c1Cc1cc(OC)c(OC)c(OC)c1
Reply: 49

Query: Need inhibition, item COC(=O)c1[nH]c2ccc(Cl)cc2c1C(=O)c1cc(OC)c(OC)c(OC)c1
Reply: 61

Query: Need inhibition, item COc1ccc2[nH]cc(Sc3cc(OC)c(OC)c(OC)c3)c2c1
Reply: 61

Query: Need inhibition, item COC(=O)c1[nH]c2ccc(OC)cc2c1Cc1cc(OC)c(OC)c(OC)c1
Reply: 59

Query: Need inhibition, item CCOC(=O)c1[nH]c2ccccc2c1C(=O)c1cc(OC)c(OC)c(OC)c1
Reply: 51
